This collection of values is drawn from PubChem BioAssay (NCI).

Test system: MDA-MB-468 breast
Assay: NCI tumour cell line growth inhibition, 48 h
Lab note: anything with TGI at or over 20 µM counts as Condition met; the rest go in Condition not met.

These solved cases illustrate the format of a correct answer.
molecule	class assignment
CC(C)(C)C[C@H]1NC(C(=O)NCC[C@H](O)CO)[C@H](c2cccc(Cl)c2)[C@@]12C(=O)Nc1cc(Cl)c(F)cc12 (some centres not stated)	Condition met
COc1ccc2c(c1)O/C(=C\c1cccc(OCC(=O)Nc3nc4c(s3)CCCC4)c1)C2=O	Condition met
CCN(CC)c1ccc(C(=C2C=CC(=[N+](CC)Cc3cccc(S(=O)(=O)O)c3)C=C2)c2ccc(N(CC)Cc3cccc(S(=O)(=O)O)c3)cc2)cc1	Condition not met
COC[C@@H](CC(C)C)N=C1NC(=O)/C(=C/c2ccc3ncsc3c2)N1	Condition not met
C=C1C(=O)O[C@H]2[C@H]1CC/C(COC(=O)NCc1ccccc1OC)=C\CC[C@@]1(C)O[C@@H]21	Condition not met

Proceed to the following item.
Threshold query (TGI >= 20 µM) on COC(=O)[C@]12CC[C@@H](C)[C@H](C)[C@@H]1C1=CC[C@@H]3[C@@]4(C)C[C@@H](OC(C)=O)[C@H](O)[C@@](C)(COC(C)=O)[C@@H]4[C@H](O)C[C@@]3(C)[C@]1(C)CC2 Condition not met

====

Test system: MDA-MB-468 breast
Test: NCI tumour cell line growth inhibition, 48 h
measured property: TGI (µM)
Note: unit µM is implicit; provide only the numeric part.

> print(dat)
                                   compound  result.number
1  COc1ccc(C(=O)/C=C/c2ccc(/C=C/c3cc(OC)c(OC)c(OC)c3)cc2)cc1           48.7

Return value of TGI for input CC1SC(c2c(Cl)cccc2Cl)N(NC(=O)c2[nH]c3ccc(F)cc3c2-c2ccccc2)C1=O (stereo unspecified) , no commentary. 29.9

Return value of TGI for input Cc1ccc2c(ccc3c[n+]4c5ccccc5ccc4n32)c1 , no commentary. 2.47

Return value of TGI for input O=C(Nc1cccc(C(F)(F)F)c1)c1cncc(C#Cc2cnc3ccc(N4CCOCC4)nn23)c1 , no commentary. 27

====

Test system: MDA-MB-468 breast
Test: NCI tumour cell line growth inhibition, 48 h
measured property: GI50

Example entries begin here.
> print(dat)
                                   compound    result
1  C=CCc1c2c(c(OC)c3ccoc13)C(=O)/C(=C/c1ccccc1OC)O2   2460 nM
2  CCN(CC)c1ccc(C(=C2C=CC(=[N+](CC)Cc3cccc(S(=O)(=O)O)c3)C=C2)c2ccc(N(CC)Cc3cccc(S(=O)(=O)O)c3)cc2)cc1   2580 nM
3  COC[C@@H](CC(C)C)N=C1NC(=O)/C(=C/c2ccc3ncsc3c2)N1   1980 nM
4  CC1SC(c2c(Cl)cccc2Cl)N(NC(=O)c2[nH]c3ccc(F)cc3c2-c2ccccc2)C1=O (stereo unspecified)   3720 nM
5  O=C(Nc1cccc(C(F)(F)F)c1)c1cncc(C#Cc2cnc3ccc(N4CCOCC4)nn23)c1  12800 nM

Return value of GI50 for input CCN(CC)S(=O)(=O)c1ccc(OC)c(Nc2ncc(-c3ccccc3)o2)c1 , no commentary. > 10400 nM
